Entries annotated with measured Kd
Experimental System: D614G Spike (SARS-CoV-2, UniProt P0DTC2 16-1213)

>  <Binder>
S1-R3-T1-C4 (Ab_8) (scFv, V domains shown) VH: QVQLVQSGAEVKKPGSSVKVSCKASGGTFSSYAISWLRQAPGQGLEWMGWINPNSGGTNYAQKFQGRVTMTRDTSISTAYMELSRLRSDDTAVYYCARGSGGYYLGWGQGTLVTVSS VL: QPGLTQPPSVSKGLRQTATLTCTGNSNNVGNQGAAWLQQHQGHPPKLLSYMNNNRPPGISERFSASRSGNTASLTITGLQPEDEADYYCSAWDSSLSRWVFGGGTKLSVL

>  <Kd / pM>
7.3

$$$$
>  <Binder>
Ab 20 (scFv, V domains shown) VH: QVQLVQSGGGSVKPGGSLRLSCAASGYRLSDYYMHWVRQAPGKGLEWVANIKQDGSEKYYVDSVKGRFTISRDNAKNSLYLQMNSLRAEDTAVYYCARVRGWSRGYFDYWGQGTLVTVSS VL: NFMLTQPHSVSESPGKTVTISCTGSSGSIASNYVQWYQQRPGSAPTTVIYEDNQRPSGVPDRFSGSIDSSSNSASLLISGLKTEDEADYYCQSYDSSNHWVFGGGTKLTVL

>  <Kd / pM>
8.64

$$$$
>  <Binder>
Ab_16 (scFv, V domains shown) VH: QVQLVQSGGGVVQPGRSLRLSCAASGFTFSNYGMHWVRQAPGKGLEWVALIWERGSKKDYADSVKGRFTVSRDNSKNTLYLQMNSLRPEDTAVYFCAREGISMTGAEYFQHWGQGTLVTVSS VL: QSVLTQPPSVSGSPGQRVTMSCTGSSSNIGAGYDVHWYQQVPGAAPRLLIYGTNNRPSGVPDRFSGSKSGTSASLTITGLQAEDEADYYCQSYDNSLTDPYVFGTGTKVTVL

>  <Kd / pM>
8.35

$$$$
